// data source = ChEMBL document CHEMBL5291721

Here's what we have: AC50 numbers for Sodium-dependent serotonin transporter (Homo sapiens).

| COMPOUND | TEST_SYSTEM | AC50 |
| --- | --- | --- |
| CC(C)=CCC/C(C)=C/CC/C(C)=C/CC/C(C)=C/CC1=C(C)C(=O)c2ccccc2C1=O | Sodium-dependent serotonin transporter (Homo sapiens) | > 30 µM |
| CN1CCCC(CC2c3ccccc3Sc3ccccc32)C1 (stereo not drawn) | Sodium-dependent serotonin transporter (Homo sapiens) | 18.2 µM |
| Cc1cccc(C)c1NC(=O)c1cc(S(N)(=O)=O)c(Cl)cc1O [XIPAMIDE] | Sodium-dependent serotonin transporter (Homo sapiens) | > 30 µM |
| NC(=O)C1(N2CCCCC2)CCN(CCCC(=O)c2ccc(F)cc2)CC1 | Sodium-dependent serotonin transporter (Homo sapiens) | 15.8 µM |

Could you share what AC50 was measured for `CC(C)NC[C@H](O)COc1ccc(CCOCC2CC2)cc1` , tested on Sodium-dependent serotonin transporter (Homo sapiens)? > 30 µM

Could you share what AC50 was measured for `CCn1c(=O)c2c(nc(/C=C/c3ccc(OC)c(OC)c3)n2C)n(CC)c1=O` , tested on Sodium-dependent serotonin transporter (Homo sapiens)? > 30 µM

Could you share what AC50 was measured for `C[C@H](Nc1ncnc2[nH]cnc12)c1cc2cccc(Cl)c2c(=O)n1-c1ccccc1` , tested on Sodium-dependent serotonin transporter (Homo sapiens)? > 30 µM

Could you share what AC50 was measured for `COCC(=O)O[C@]1(CCN(C)CCCc2nc3ccccc3[nH]2)CCc2cc(F)ccc2[C@@H]1C(C)C` , tested on Sodium-dependent serotonin transporter (Homo sapiens)? 22.8 µM

Could you share what AC50 was measured for `COC(=O)N[C@H](C(=O)N1CC2(CC2)C[C@H]1c1ncc(-c2ccc3c(c2)C(F)(F)c2cc(-c4ccc5nc([C@@H]6[C@H]7CC[C@H](C7)N6C(=O)[C@@H](NC(=O)OC)C(C)C)[nH]c5c4)ccc2-3)[nH]1)C(C)C` , tested on Sodium-dependent serotonin transporter (Homo sapiens)? > 30 µM

Could you share what AC50 was measured for COc1cc(C(=O)NCc2ccc(OCCN(C)C)cc2)cc(OC)c1OC [TRIMETHOBENZAMIDE] , tested on Sodium-dependent serotonin transporter (Homo sapiens)? > 30 µM

Could you share what AC50 was measured for `C#CCN(C)Cc1ccccc1` , tested on Sodium-dependent serotonin transporter (Homo sapiens)? > 30 µM

Could you share what AC50 was measured for CCCCC(=O)O[C@H]1CC[C@H]2[C@@H]3CCc4cc(O)ccc4[C@H]3CC[C@]12C [ESTRADIOL VALERATE] , tested on Sodium-dependent serotonin transporter (Homo sapiens)? > 30 µM

Could you share what AC50 was measured for `O=C(O)[C@H](O)[C@@H](O)[C@H](O)[C@H](O)CO` , tested on Sodium-dependent serotonin transporter (Homo sapiens)? > 30 µM

Could you share what AC50 was measured for `COc1ccc(C(=O)c2ccccc2)c(O)c1` , tested on Sodium-dependent serotonin transporter (Homo sapiens)? > 30 µM

Could you share what AC50 was measured for `Cc1ncc(CO)c(CO)c1O` , tested on Sodium-dependent serotonin transporter (Homo sapiens)? > 30 µM
